target_under_test: human activated kallikrein enzyme (Homo sapiens, UniProt P03952)
Sequence (P03952 391-638 limits assumed): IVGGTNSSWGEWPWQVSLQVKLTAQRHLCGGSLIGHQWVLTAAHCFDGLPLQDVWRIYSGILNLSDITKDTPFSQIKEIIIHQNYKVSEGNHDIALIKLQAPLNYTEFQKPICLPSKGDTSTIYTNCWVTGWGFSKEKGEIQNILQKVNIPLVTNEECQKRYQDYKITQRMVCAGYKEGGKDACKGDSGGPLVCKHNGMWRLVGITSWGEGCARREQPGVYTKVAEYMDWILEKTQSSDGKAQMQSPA
Sequence (P03952 20-390 partner limits assumed): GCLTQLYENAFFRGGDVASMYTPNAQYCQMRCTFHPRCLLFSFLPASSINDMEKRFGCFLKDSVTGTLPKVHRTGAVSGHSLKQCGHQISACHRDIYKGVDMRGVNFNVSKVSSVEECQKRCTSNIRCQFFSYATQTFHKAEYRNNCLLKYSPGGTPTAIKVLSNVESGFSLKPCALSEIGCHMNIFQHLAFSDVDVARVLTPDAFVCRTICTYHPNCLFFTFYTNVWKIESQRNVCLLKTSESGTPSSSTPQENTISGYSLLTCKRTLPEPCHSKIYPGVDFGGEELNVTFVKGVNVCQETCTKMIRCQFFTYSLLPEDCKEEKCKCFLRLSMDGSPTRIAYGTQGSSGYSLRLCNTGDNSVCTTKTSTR
protocol_description: Plasma kallikrein inhibition, fluorogenic PFR-AMC substrate, 500 pM activated kallikrein format
Type: biochemical
condition_info: 500 pM activated kallikrein, 300 uM PFR-AMC, 30 min preincubation, 10 min reaction; read-out: Primary Dose Response Assay: Average EC50
pEC50: −log10 of the molar value.
experimental_readout: pEC50

| compound | result |
| --- | --- |
| Cc1ccnc([C@H]2C[C@@H]2C(=O)Nc2ccc(F)c(OCc3cn4cc(C5CC5)cc(N5CC(=O)N(C)C5=O)c4n3)c2)n1 [Example 657] | > 9.00 |
| O=C(Nc1cn(Cc2cn3cc(C4CC4)ccc3n2)nn1)[C@H]1C[C@@H]1c1cccc(Cl)c1 (racemic) [Example 593] | < 5.22 |

Query compound follows.
Task: Sample Cc1ccnc([C@H]2C[C@@H]2C(=O)Nc2cc(NCc3cn4cc(C5CC5)cc(N5C(=O)N(C)C(=O)C56CC6)c4n3)nc(C)n2)n1 [Example 357] — what was its pEC50?
Output: > 9.00

The values you see were collected from patent US20240228488A1.
